Reference source for all entries: patent US20260167623A1

biological target: CDK2 (Homo sapiens, UniProt P24941); construct: High-Throughput Measurement of Cellular Endogenous CDK2; endogenous in cells; experiment: Inhibition of CDK2: phospho-Rb (S807/811) HTRF measurement in OVCAR3 cells, 24 h; conditions: 24 h compound treatment, read-out: pRB_OVCAR3_24h
pIC50: −log10 of the molar value.
MEASUREMENT_KIND: pIC50

See these solved cases before continuing.
INSERT INTO results (compound, measurement_kind, endpoint_value) VALUES
  ('Cn1c(=O)n(C2CCC(=O)NC2=O)c2cccc(C3CCN(CC4CCN(c5cc(S(=O)(=O)N6CCC(Nc7ncc(Cl)cn7)CC6)ccc5C#N)CC4)CC3)c21 (stereo not drawn)', 'pIC50', '7.00 to 9.00'),
  ('O=C1CCN(c2nn(CC(F)(F)F)c3cc(C4CCN(CC5CCN(c6cccc(S(=O)(=O)N7CCC(Nc8ncc(C(F)(F)F)cn8)CC7)c6)CC5)CC4)ccc23)C(=O)N1', 'pIC50', '6.30 to 7.00'),
  ('O=C1CCC(NC(=O)c2ccc(C3CCN(CC4CCN(c5cccc(S(=O)(=O)N6CCC(Nc7ncc(C(F)(F)F)cn7)CC6)c5)CC4)CC3)cc2F)C(=O)N1 (stereo not drawn)', 'pIC50', '6.30 to 7.00');

Query block: Which value of pIC50 has been reported for Cn1nc(N2CCC(=O)NC2=O)c2ccc(C3CCN(Cc4cccc(S(=O)(=O)N5CCC(Nc6ncc(Cl)cn6)CC5)c4)CC3(F)F)cc21 (stereo not drawn) in the records?
Result block: 6.30 to 7.00

Query block: Which value of pIC50 has been reported for Cn1c(=O)n(C2CCC(=O)NC2=O)c2cc(F)cc(C3CCN(CC4CCN(c5cc(S(=O)(=O)N6CCC(Nc7ncc(Cl)cn7)CC6)ccc5C#N)CC4)CC3)c21 (stereo not drawn) in the records?
Result block: 7.00 to 9.00

Query block: Which value of pIC50 has been reported for O=C1CCC(n2c(=O)oc3c(C4CCN(CC5CCN(c6cccc(S(=O)(=O)N7CCC(Nc8ncc(Cl)cn8)CC7)c6)CC5)CC4)cccc32)C(=O)N1 (stereo not drawn) in the records?
Result block: 7.00 to 9.00
